TESTED SYSTEM: N-acyl-phosphatidylethanolamine-hydrolyzing phospholipase D (Mus musculus, UniProt Q8BH82)
Sequence (Q8BH82 whole entry): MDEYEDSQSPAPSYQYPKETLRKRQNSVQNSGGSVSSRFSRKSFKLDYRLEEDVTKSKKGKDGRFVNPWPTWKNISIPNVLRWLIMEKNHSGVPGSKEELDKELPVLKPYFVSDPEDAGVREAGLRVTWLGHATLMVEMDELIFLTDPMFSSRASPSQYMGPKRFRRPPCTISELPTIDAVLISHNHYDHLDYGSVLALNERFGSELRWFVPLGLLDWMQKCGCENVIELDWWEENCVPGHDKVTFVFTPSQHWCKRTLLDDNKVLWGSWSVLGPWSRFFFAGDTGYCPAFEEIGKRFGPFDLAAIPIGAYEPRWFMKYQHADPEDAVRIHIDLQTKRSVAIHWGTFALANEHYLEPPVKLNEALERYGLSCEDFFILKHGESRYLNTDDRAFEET
PROTOCOL: Inhibition of full length mouse NAPE-PLD expressed in HEK293T cell lysate using PED6 as substrate preincubated for 30 mins followed by substrate addition and measured at 2 mins interval for 1 hr by tecan-plate reader analysis
pIC50: −log10 of the molar value.
TEST READOUT: pIC50

(1) O=C(NCC1CC1)c1cc(N2CCS(=O)(=O)CC2)nc(N2CCC[C@@H](c3ccccc3)C2)n1
(2) O=C(NCC1CC1)c1cc(N2CC[C@@H](O)C2)nc(N2CCC[C@@H](c3ccccc3)C2)n1
-- ask For this pair, 1 and 2 , which shows a numerically higher pIC50? // respond with label for picked entry
-- reply 2
(2: 6.42, 1: 5.02)
